Listed below: Kd values for each entry.
biological target: IgG; experiment: SPR, IgG immobilised on CM5 chip, compound as analyte; value from the legend of the grade (**** = Kd <100 nM)
Bridges are numbered along the chain shown (N, C = ends). [ ]: non-standard residue; d: D form.

The cases that follow already have their Kd on record.
binder	Kd
cyclo(PDCAWHLGELVWCT[dP]) (disulfide 3-13; not fully specified (residue 1); also: conjugate from starting material A138) [Compound 66]	< 100 nM
PDCAWHLGELVWCTP (not fully specified; residue 1 = (2S,4R)-4-aminoproline; residue 15 = D-Pro; backbone cyclised head to tail; disulfide Cys3-Cys13; 4-amino group of residue 1 acylated with the linker to the ASGPR ligand) [Compound 91]	< 100 nM

Now let's try a different one.
// recorded Kd for cyclo(PDCAWHLGELVWCT[dP]) (disulfide 3-13; not fully specified (residue 1); also: 4-amino group of residue 1 acylated with linker to ASGPR ligands) [Compound 95] : < 100 nM
